// data source = PubChem BioAssay (NCI)

// values below are reported TGI
System: SK-MEL-2 melanoma
Assay: NCI tumour cell line growth inhibition, 48 h
property name: TGI

{"columns": ["molecule", "target of assay", "observed measurement"],
 "data": [
  ["CN1CC[C@]2(C)c3ccc(O)cc3CC3CCCC1C32C (stereo not given in full)", "SK-MEL-2 melanoma", "> 100 µM"],
  ["Cc1cccc(C)c1NC(=O)C1C(=O)N(c2c(C)cccc2C)C(=O)/C1=N\\NC(N)=S (stereo not given)", "SK-MEL-2 melanoma", "> 100 µM"],
  ["O=C(c1ccncc1)n1nc(-c2ccccc2)c(N=Nc2ccccc2[N+](=O)[O-])c1-c1ccccc1", "SK-MEL-2 melanoma", "> 100 µM"],
  ["Cc1cc(C)c(C(=O)c2no[n+]([O-])c2C(=O)c2c(C)cc(C)c(Br)c2C)c(C)c1Br", "SK-MEL-2 melanoma", "30.9 µM"],
  ["CN(C)CC1CCC/C1=N\\O (stereo not given)", "SK-MEL-2 melanoma", "> 100 µM"]
]}
